# Assay system: recombinant CD73 (Homo sapiens (Human), UniProt P21589)
# Sequence (P21589 27-547): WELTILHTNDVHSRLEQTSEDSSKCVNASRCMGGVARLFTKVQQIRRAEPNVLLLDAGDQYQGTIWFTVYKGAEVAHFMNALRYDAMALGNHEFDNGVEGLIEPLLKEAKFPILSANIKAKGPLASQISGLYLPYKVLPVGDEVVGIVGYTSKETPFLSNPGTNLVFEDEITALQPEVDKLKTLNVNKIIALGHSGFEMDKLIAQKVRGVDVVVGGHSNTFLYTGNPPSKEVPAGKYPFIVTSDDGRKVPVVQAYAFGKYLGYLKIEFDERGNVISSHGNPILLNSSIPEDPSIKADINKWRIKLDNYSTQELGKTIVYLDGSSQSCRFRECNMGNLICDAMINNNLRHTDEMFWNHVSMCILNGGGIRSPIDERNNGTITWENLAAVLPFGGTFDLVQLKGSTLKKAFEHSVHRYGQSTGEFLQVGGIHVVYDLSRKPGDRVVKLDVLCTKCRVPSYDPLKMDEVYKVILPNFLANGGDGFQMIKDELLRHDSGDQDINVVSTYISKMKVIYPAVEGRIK
# Experiment description: Inhibition of the CD73 enzyme in vitro (soluble recombinant CD73, AMP, Malachite Green)
# Assay type: biochemical
# Applied conditions: recombinant CD73 0.5 nM, AMP 50 μM, 30 minutes at room temperature
The following compounds are shown together with reported IC50 values.
Please reply with the bare figure in nM and do not write the unit itself.

1. CS(=O)(=O)c1ccc(CC(OC[C@H]2O[C@@H](n3cnc4c(N)nc(Cl)nc43)[C@@H](F)[C@@H]2O)(C(=O)O)C(=O)O)cc1 [compound 21]
193
2. Nc1nc(Cl)nc2c1ncn2[C@@H]1O[C@H](COC(Cc2ccc(C(=O)O)cc2)(C(=O)O)C(=O)O)[C@@H](O)[C@@H]1F
114

Give the measured IC50 of N#Cc1ccccc1-c1ccc(CC(OC[C@H]2O[C@@H](n3cnc4c(N)nc(Cl)nc43)[C@@H](F)[C@@H]2O)(C(=O)O)C(=O)O)cc1 . 105

====

The following compounds are shown together with reported pIC50 values.
# Assay system: recombinant CD73 (Homo sapiens (Human), UniProt P21589)
# Experiment description: Inhibition of the CD73 enzyme in vitro (soluble recombinant CD73, AMP, Malachite Green)
# Assay type: biochemical
# Applied conditions: recombinant CD73 0.5 nM, AMP 50 μM, 30 minutes at room temperature
Kindly note that pIC50 refers to -log10 of the concentration in mol/L and answer with the value alone.

Give the measured pIC50 of Nc1ncnc2c1ncn2[C@@H]1O[C@H](COC(Cc2cccc(OC(F)(F)F)c2)(C(=O)O)C(=O)OCCN2CCOCC2)[C@@H](O)[C@@H]1F (stereo partly shown) . 4.78

Give the measured pIC50 of NC(=O)c1ccc(CC(OC[C@H]2O[C@@H](n3cnc4c(N)nc(Cl)nc43)[C@@H](F)[C@@H]2O)(C(=O)O)C(=O)O)cc1 . 6.85

====

# Assay system: recombinant CD73 (Homo sapiens (Human), UniProt P21589)
# Experiment description: Inhibition of the CD73 enzyme in vitro (soluble recombinant CD73, AMP, Malachite Green)
# Type: biochemical
# Applied conditions: recombinant CD73 0.5 nM, AMP 50 μM, 30 minutes at room temperature
# Procedure: The concentration of inorganic phosphate was determined using a phosphate standard curve.
Endpoint label: pIC50
Kindly note that pIC50 refers to -log10 of the concentration in mol/L and answer with the value alone.

Sample records with pIC50:
1. Nc1nc(Cl)nc2c1ncn2[C@@H]1O[C@H](COC(Cc2ccc3c(c2)OC(F)(F)O3)(C(=O)O)C(=O)O)[C@@H](O)[C@@H]1F [compound 110]
7.18
2. Nc1nc(Cl)nc2c1ncn2[C@@H]1O[C@H](COC(Cc2cccc(-c3nnn[nH]3)c2)(C(=O)O)C(=O)O)[C@@H](O)[C@@H]1F [compound 53]
6.35
3. O=C(O)C(Cc1ccccc1)(OC[C@H]1O[C@@H](n2cnc3c(NCc4ccccc4)nc(Cl)nc32)[C@@H](F)[C@@H]1O)C(=O)O [compound 28]
5.58
4. Nc1nc(Cl)nc2c1ncn2[C@@H]1O[C@H](COC(Cc2cccc(Oc3ccccc3)c2)(C(=O)O)C(=O)O)[C@@H](O)[C@@H]1F [compound 13]
6.39

Give the measured pIC50 of Nc1nc(Cl)nc2c1ncn2[C@@H]1O[C@H](COC(Cc2ccc(O)cc2)(C(=O)O)C(=O)O)[C@@H](O)[C@@H]1F [compound 66] . 6.88
